assay: soluble on expression in E. coli; label from the status in PepcDB or PDB records
Value type: soluble on expression in E. coli

Field: example entries. Status: answers known.
Sequence input	soluble on expression in E. coli
MARFIAQLLLLASCVAAGQAVTAFLGERVTLTSYWRRVSLGPEIEVSWFKLGPGEEQVLIGRMHHDVIFIEWPFRGFFDIHRSANTFFLVVTAANISHDGNYLCRMKLGETEVTKQEHLSVVKPLTLSVHSERSQFPDFSVLTVTCTVNAFPHPHVQWLMPEGVEPAPTAANGGVMKEKDGSLSVAVDLSLPKPWHLPVTCVGKNDKEEAHGVYVSGYLSQ	soluble
HVYILGKIPSPLTLIKAFADVRPSFVIMVPLIIEKLYHKAIAPKIKTPLIKFLLRLPVLKKVIHKSIRSKLIESFGGNFRQIIIGGAALNDEVAHFLYRIGFPLTVG	not soluble
MGSDKIHHHHHHMKEYIMSFFNAPVTNKIPTCICSVAGLHTYISTNPQLEELTRKVRAGLGDKQVFRKNKQTLLPYVTPAGIFSYCKEQCMQVPSGLFVIDIDELASTEEAAMWRDRLFADEVLHPVLSFVSPGNQGVKLFIPYRINPFLSVEESFDNALHTAWEYLEWKYELKVDRANADLSRACFLSHDGEAKINNHKY	not soluble
MQAKVHVKKGDTVLVASGKYKGRVGKVKAVLPRKMAVIVEGVNLVKKAVRPSPKHPQGGFVEQEAPLHASKVRPICPACGKPTRVRKKFLEDGRKIRACAKCGGSLDVEELEHHHHHH	not soluble
MDTSSSCKAFLLDSALAVKWPRDKETAPRLPQHRGWNPGDAPQTSQGRGTGTPVGAETKTLPSTDVAQPPSDSDAVGPRSGFPPQPSLPLCRAPGQLGEKQLPSSTSDDRVKDEFSDLSEGDVLSEDENDKKQNAQSSDESFEPYPERKVSGKKSESKEAKKSEEPRIRKKPGPKPGWKKKLRCEREELPTIYKCPYQGCTAVYRGADGMKKHIKEHHEEVRERPCPHPGCNKVFMIDRYLQRHVKLIHTEVRNYICDECGQTFKQRKHLLVHQMRHSGAKPLQCEVCGFQCRQRASLKYHMTKHKAETELDFACDQCGRRFEKAHNLNVHMSMVHPLTQTQDKALPLEAEPPPGPPSPSVTTEGQAVKPEPT	soluble
MGSDKIHHHHHHMKQLVGIPESMLIPLIARAKEYENEKPIIKDALSKKIFDGLDDMYKNVTCDDMSQIGISIRTVIIDCVTKRLIKDNKDLIVVNIGCGLDTRFQRFNKEKISWIDLDVPESIEIRKTFFKESNSYKMISKSMLDYSWIDDVKNYKFFNSKSDILFIIEGVLMYFDESVMTQLLDTIIKKMGDHNLTFAIEFCSKTIANNTKRHQSVSKLSSQPVFKYGYNDLKKLNEILPNTIRVIHEYNYFDYYKNRWGLFGYCRFIPYLKKRLNNKIVLMKYKVPKRQRH	not soluble

Shift focus to the following entry.
Suppose we examine the sequence `DGKRVWLSDDELTRFIEQAETPHQRLAFLLAGRVGLRRSEIIEVCPQDLVDGPTGDHIRVWESYAKRDKYREPPVPQEVVTIAETLAYQQDDDEPLLDVAGSTVYRWVRRAADELEEETGDRGWQYLDVHDLRRTWGTYLLEQGVIPSVVMSFGGWEDWDTFRKHYLGEFS` ; what soluble on expression in E. coli value has been reported?
soluble

---

test: soluble on expression in E. coli; label from the status in PepcDB or PDB records
Value type: soluble on expression in E. coli

Known results for sequences:
Sequence input	soluble on expression in E. coli
NWVTPDGAPGPTGKGGFAAASGRYHLYVSYACPWAHRTLIFREIKGLSAHIPVSAVHPDMLDQGWTFAPEPQGRTGDRLYGLNYAHQVYTRADPTYSGRVTVPILWDSERQTVVSNESSEIIRMFNSAFDGLTGNRDDFWPEALREAIEPVNARIYDTVNN	not soluble
MLFFLIFLGLMATASAKAGRCNEGDQDAHFDSNKFWKCEGGRWIVVTCQINYFYDATTGFCYLSRFPTTRPYPPPFPTRPRPTQGHRCYPGTRIPYPHDHTMFLECSTDGTEYIKRYCQPDAVFVQRENMCVAIQTTYRPTRTWPTTTTTPYYGACKESAGHDGYKPDVYNCKNFYQCASGLWTQRSCGEGTIWDQHKLTCDHNRGQCRPTSPTVQPTYQPTWRPTAYPPNEVKK	soluble
MGSDKIHHHHHHMQRIMVIGGPGSGKSTLGRKLGARLGLPVVHMDPIYWLGDWVERDKAEAMRMAKEVADGSQWVFEGNHFASMAYRAERADLIVFLDMPRVLRMWRILWRSLRYYGRTRPDMGPNCPERFNRAFLKFCWTYDREGRLRALGFVDDWRDRRRVRILTSRRQVAAFLVEIDRQ	not soluble
MDKQIGFIGCGNMGMAMIGGMINKNIVSSNQIICSDLNTANLKNASEKYGLTTTTDNNEVAKNADILILSIKPDLYASIINEIKEIIKNDAIIVTIAAGKSIESTENAFNKKVKVVRVMPNTPALVGEGMSALCPNEMVTEKDLEDVLNIFNSFGQTEIVSEKLMDVVTSVSGSSPAYVYMIIEAMADAAVLDGMPRNQAYKFAAQAVLGSAKMVLETGIHPGELKDMVCSPGGTTIEAVATLEEKGLRTAIISAMQRCTQKSVELSGQTKKLEHHHHHH	soluble
MSLSEEKWAIITGADGGMGTEITRAVAEAGYHIIMACYRPSKAEPIRQRLVNETGNANMEVMAVDLSSMASTASFADRIVERHLPVSLLMNNAGTMETGLHITDDGFERTVSVNYLGPYLLTRKLLPALTCGARIVNMVSCTYAIGHLDFPDFFRQGRKGSFWRIPVYSNTKLALMLFTIELSERLREKGITVNAADPGIVSTDIITMHQWFDPLTDIFFRPFIRTPKKGASTAVGLLLDEAVAGVSGQLYASSHRKQLSEKYLCHVQQKQLWQETEQALERWLKEGHHHHHH	soluble

Shifting focus to the sequence that follows.
So what does the record say about soluble on expression in E. coli for `MGSDKIHHHHHHMRVCAEHHVINTATGPMGTRVYRPAGPGSYPAILFYSEIFQETAPISRMATVLAGHGFVVLVPEIFHELNPAGTVLGYDDMGKDKGNSDKATKPLESHDSDTAAMVDFVRRQPWCQGKIGAMGVCIGGHLAYRAAVNPDVAAAFCLYATDIHSGTIPSQPGNDSLSRTRDIRGELYMVFGKQDPHVPGEGRRLIQHNLEQHGVNHSWLEVNAEHAFMRDGDARHDPALALVMYQSAIALFQRTL` ?
not soluble

---

test: soluble on expression in E. coli; label from the status in PepcDB or PDB records
Value type: soluble on expression in E. coli

The following sequences have reported results that may help.
Sequence input	Value type	Observed result
GSHMLEMRIGHGFDVHAFGGEGPIIIGGVRIPYEKGLLAHSDGDVALHALTDALLGAAALGDIGKLFPDTDPAFKGADSRELLREAWRRIQAKGYTLGNVDVTIIAQAPKMLPHIPQMRVFIAEDLGCHMDDVNVKATTTEKLGFTGRGEGIACEAVALLIKATK	soluble on expression in E. coli	soluble
MGSDKIHHHHHHMTFDANDVVRRLGARLKMRHLMLLLQIQQHGSLTRVAEHMASSQPAVTNALSELESMFGTPLFERTSRGMRPTALGSVVLERARAMLKDLDHLAREMEAVAAGHAAHLHIGVIPFISGQMLSAALKRLQSRMERRLTVTIHEGTSDQLLLQLKDHSVDLVIGRASSAIDLGQVSFEVLYQQQPRMIASRRLAAKLARTKLDWQKLHALDWILGAPHTPMREQVTDLFLSAGIAPPVPIVESYSSKLIGEMIASSDDAVSIVPADIAEEMVRIAGVAIVPYSLVWTLPPIALFTRAGESHAPTRDLLVQALREICRETYVEVPR	soluble on expression in E. coli	not soluble
MRLEECRKRLEELEAAREELLKVLREMRIHSTKSIALIHAGKVEEAEQELKKAIELLEKVKAYREYPEIYFYLCNDAMQELVEAIAFKNAISGEFTFEIDLEVTPAAFLNGFADAVGELRRYALTKLIEGDFKSAERMLEVMEKIYERLMEFTTFPDKLVSGLRKKLDVARGGIERTKSDYIAAKVARLNESLGGN	soluble on expression in E. coli	not soluble
MSLINLKHSFGISRSSHDFYDIVYFYIVDGEIIGRGEAAPSKRYNETTEKIISVLNKGILVPENFEDADQLWEYIKPQLEGISALEAAANMAIWDWRGQKENKAVHDILGFNVSKLPATSYTISIGDMSELDEKIELSNPYSIIKVKLGTPNDDKEIISQIRQRTDKLIRVDANEGWSLDNAKEMSYWLADRNVEFIEQPFKAKMLNETRSLREFSPLPLFADENSLVSSDIPNIVDCFDGINIKLMKCGGLDEALKMIEIAKHFDMQIMLEGHHHHHH	soluble on expression in E. coli	not soluble
MVYVAVLANIAGNLPALTAALSRIEEMREEGYEIEKYYILGNIVGLFPYPKEVIEVIKDLTKKENVKIIRGKYDQIIAMSDPHATDPGYIDKLELPGHVKKALKFTWEKLGHEGREYLRDLPIYLVDKIGGNEVFGVYGSPINPFDGEVLAEQPTSYYEAIMRPVKDYEMLIVASPMYPVDAMTRYGRVVCPGSVGFPPGKEHKATFALVDVDTLKPKFIEVEYDKKIIEERIRAEGLPEEIIKILYHGGRP	soluble on expression in E. coli	soluble

Which soluble on expression in E. coli is listed for `MTAHPQEDHYKYKKVISIGVVSELTGLSQRQIRYYEERKLVFPDRSRGIRKYSFADVEQLMKIANQREEGVSTWEIRQEMTKELRERMLKGQMNAHFRRRS` ?
not soluble

Next up: `MSLRDYRYSDAHVHYVDFFQESEGMPRLLEAMDKGRVDHVMLSGVAVAKKWHKDEPKRPRYYAGDDAGAYWYSATDVIVAAAVKSLPAEQRRRVHPFLTGFNPTDKNADAHIRRMLELDPGLWQGIGEIFTRHDDLTALTYGDVPRANNEALARVYHLAAEFDLPVLLHANVTSKRERNPLYLAEIEEPLRNHPHVRFIWAHAGTSMEIHRHQKKLDFLLPTLRRLLQRYPNLYIDLSWSVLRPYLLDEQGKPDPQWLALVERFPQRFMLGSDVVGQFDSLPELMASFDPFLDALPEQVARQVARDNFLAVLPREGHHHHHH`
soluble
